Tested on: yeast HSP78 (YDR258C) sequence
Assay: Duplex melting temperatures of HSP78 25-mer capture probes (UV spectrophotometer)
Details: 25-mer capture probe duplex with complementary target; design PM = perfectly matched, MM = single mismatch; DNA, LNA_T (T) or LNA_TC (TC) substituted
l = locked nucleic acid (LNA); [5mC] = 5-methylcytosine; d = 2'-deoxy (DNA)
PROPERTY NAME: Average duplex melting temp.
Answer with the figure and its unit, nothing else.

Any idea what Average duplex melting temp. was measured for 12802 (DNA TGGCCTAGGGAATCGGTCAGCTTAC; sugars from the 5' end lddldlddddddllddldddldldd, [5mC] at 4, 14, 21, backbone not given here; further chemistry not fully specified) [compound 12802] ?
83.6 °C

Any idea what Average duplex melting temp. was measured for 12752 (DNA ACCATCATCACCCAACTTTGTGTCG; DNA, backbone not given here; further chemistry not fully specified) [compound 12752] ?
67.5 °C

Any idea what Average duplex melting temp. was measured for 12818 (DNA TTTTTCGGCCAAACGATCTTGAATT; sugars from the 5' end ldldllddlldddldddldldddld, all C 5-methyl, backbone not given here; further chemistry not fully specified) [compound 12818] ?
77.8 °C

Any idea what Average duplex melting temp. was measured for 12784 (DNA GACCTAAGAACATAAAGCTGGCAAT; sugars from the 5' end ddddldddddddldddddldddddd, backbone not given here; further chemistry not fully specified) [compound 12784] ?
67.5 °C

All figures here come from patent US9464106B2.
